Origin of measurements: patent US11401286B2

# Target Of Assay: PDE4D7 (Homo sapiens (Human), UniProt Q08499)
# Sequence (Q08499 other isoform, or with tags, fused parts or gaps): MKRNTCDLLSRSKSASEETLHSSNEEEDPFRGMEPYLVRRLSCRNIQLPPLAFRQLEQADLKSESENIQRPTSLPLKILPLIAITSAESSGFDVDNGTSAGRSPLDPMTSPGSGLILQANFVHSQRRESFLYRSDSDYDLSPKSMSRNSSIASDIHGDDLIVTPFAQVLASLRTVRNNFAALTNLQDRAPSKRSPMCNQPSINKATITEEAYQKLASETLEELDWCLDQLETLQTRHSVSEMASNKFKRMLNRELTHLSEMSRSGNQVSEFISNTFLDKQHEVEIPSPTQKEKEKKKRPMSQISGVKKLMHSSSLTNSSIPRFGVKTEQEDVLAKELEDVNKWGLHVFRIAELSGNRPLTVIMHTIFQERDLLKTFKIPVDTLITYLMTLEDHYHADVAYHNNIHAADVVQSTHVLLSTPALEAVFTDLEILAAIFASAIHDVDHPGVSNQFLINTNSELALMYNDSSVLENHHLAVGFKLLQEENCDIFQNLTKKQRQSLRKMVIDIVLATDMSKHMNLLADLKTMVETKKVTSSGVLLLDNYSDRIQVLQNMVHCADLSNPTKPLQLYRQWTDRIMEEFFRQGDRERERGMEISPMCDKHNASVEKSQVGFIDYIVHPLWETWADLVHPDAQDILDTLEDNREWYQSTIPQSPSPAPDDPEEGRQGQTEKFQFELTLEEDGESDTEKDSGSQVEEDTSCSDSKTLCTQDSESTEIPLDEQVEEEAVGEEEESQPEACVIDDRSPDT
# Condition Parameters: read-out: PDE4D7 IC50; PDE4D7 without asterisk
Structures can show the parent of a compound that is named as a salt.
IC50 for assorted molecules

A selection of reference data follows.
>  <Molecule>
NC(=O)Cc1ccc(Nc2cc(-c3ncco3)nc3c2CCC3)cc1

>  <Readout Kind>
IC50

>  <Endpoint Result>
> 1000 nM

$$$$
>  <Molecule>
NC(=O)Cc1ccc(C(O)c2cc(-c3cccc(Cl)c3)nc3c2CCC3)cc1 (stereo not drawn) [Example 262, hydrochloride]

>  <Readout Kind>
IC50

>  <Endpoint Result>
> 1000 nM

$$$$
>  <Molecule>
CCc1c(C)nc(-c2ccc(Cl)s2)nc1Nc1ccc(Cc2nc(C(=O)OC)c[nH]2)cc1

>  <Readout Kind>
IC50

>  <Endpoint Result>
> 1000 nM

$$$$
>  <Molecule>
CCc1cc(Cc2ccc(CC(N)=O)cc2)nc(-c2cccc(Cl)c2)n1

>  <Readout Kind>
IC50

>  <Endpoint Result>
< 1000 nM

$$$$
>  <Molecule>
OB1OCc2cc(Nc3nc(-c4ccc(Cl)cc4)nc4c3CCC4)ccc21

>  <Readout Kind>
IC50

>  <Endpoint Result>
> 1000 nM

$$$$
>  <Molecule>
OC(Cc1ccc(Nc2nc(-c3cccc(Cl)c3)nc3c2CCC3)cc1)C(F)(F)F (stereo not drawn)

>  <Readout Kind>
IC50

>  <Endpoint Result>
> 1000 nM

$$$$
>  <Molecule>
OCCCc1ccc(Nc2cc(-c3cccc(Cl)c3)nc(C(F)(F)F)c2)cc1

>  <Readout Kind>
IC50

>  <Endpoint Result>
< 1000 nM

$$$$
>  <Molecule>
CCc1cc(Nc2ccc(CC(N)=O)cc2)nc(C2CCCC2)n1

>  <Readout Kind>
IC50

>  <Endpoint Result>
< 1000 nM

$$$$
>  <Molecule>
NC(=O)Cc1ccc(Nc2cc(-c3cc(Cl)ccc3Cl)nc3c2CCC3)cc1 [Example 155, hydrochloride]

>  <Readout Kind>
IC50

>  <Endpoint Result>
> 1000 nM

$$$$
>  <Molecule>
CCc1cc(Cc2ccc(C(C)(C)CO)cc2)nc(-c2cccc(Cl)c2)n1

>  <Readout Kind>
IC50

>  <Endpoint Result>
> 1000 nM

$$$$

Q: Enter recorded IC50 with PDE4D7 (Homo sapiens (Human), UniProt Q08499) for CCc1c(Nc2ccc(CC(=O)O)cc2)cc(-c2cccc(Cl)c2)nc1C here.
Ans: > 1000 nM

Q: Enter recorded IC50 with PDE4D7 (Homo sapiens (Human), UniProt Q08499) for CC(O)Cc1ccc(Nc2cc(-c3cccc(Cl)c3)nc3c2CCC3)cc1 (stereo not drawn) here.
Ans: > 1000 nM

Q: Enter recorded IC50 with PDE4D7 (Homo sapiens (Human), UniProt Q08499) for NC(=O)Cc1ccc(Nc2nc(-c3cccc(Cl)c3)nc3c2SCCC3)cc1 here.
Ans: < 1000 nM

Q: Enter recorded IC50 with PDE4D7 (Homo sapiens (Human), UniProt Q08499) for OCC(O)c1ccc(Nc2cc(-c3cccc(Cl)c3)nc3c2CCC3)cc1 (stereo not drawn) [Example 115, hydrochloride] here.
Ans: > 1000 nM

Q: Enter recorded IC50 with PDE4D7 (Homo sapiens (Human), UniProt Q08499) for OCCc1ccc(Nc2cc(C(F)(F)F)nc(-c3cccc(Cl)c3)n2)cc1 here.
Ans: > 1000 nM
